Biological target: T1, P2-AA-1HAA-S
T1 chain: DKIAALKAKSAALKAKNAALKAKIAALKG
Assay: two-hybrid library CCmax;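 also: natural log of median RNA to DNA barcode read ratio; higher means stronger binding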
Conditions: mean of both orientations
Measurement Label: interaction score

[[record]]
binder = "DEIAALEAEAAALEAENAALEAEIAALEG [P1-AA-1HAA-A]"
observed_measurement = 2

[[record]]
binder = "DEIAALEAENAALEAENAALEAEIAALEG [P1-AA]"
observed_measurement = 1.81

[[record]]
binder = "DEIAALEAEHAALEAENAALEAEIAALEG [P1-AA-1HAA-H]"
observed_measurement = 1.91

[[record]]
binder = "DEIAALEAEDAALEAENAALEAEIAALEG [P1-AA-1HAA-D]"
observed_measurement = 1.57

